# test_target: human KAT II (hKAT II) enzyme (Homo sapiens, UniProt Q8N5Z0)
# Sequence (Q8N5Z0 30-425): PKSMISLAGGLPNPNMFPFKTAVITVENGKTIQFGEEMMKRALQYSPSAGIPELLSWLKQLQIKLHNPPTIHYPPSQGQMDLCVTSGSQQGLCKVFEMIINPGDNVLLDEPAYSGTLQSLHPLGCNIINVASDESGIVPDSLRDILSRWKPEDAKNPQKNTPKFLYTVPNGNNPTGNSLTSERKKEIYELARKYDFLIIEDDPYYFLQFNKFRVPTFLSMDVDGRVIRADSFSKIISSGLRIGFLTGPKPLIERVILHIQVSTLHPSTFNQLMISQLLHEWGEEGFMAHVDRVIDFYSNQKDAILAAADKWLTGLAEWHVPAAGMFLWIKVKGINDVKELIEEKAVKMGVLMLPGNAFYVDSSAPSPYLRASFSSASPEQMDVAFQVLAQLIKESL
# test_description: KAT II Inhibition Spectra Assay
# Assay type: biochemical
# condition: Table 6; hKAT II, decrease in OD370, 37° C., 15-20 h; read-out: KATII IC50
pIC50: −log10 of the molar value. Counter-ions that a name gives are not always drawn.
# pIC50 >= 7 gives true (1), anything below gives false (0)

[ask] Threshold query (pIC50 >= 7) on COc1ccc(-c2ccc3c(c2)C[C@H](N)C(=O)N3O)cc1C [Example 134, trifluoroacetate salt]
[reply] false (0)

[ask] I'd appreciate it if you could say whether N[C@H]1Cc2c(ccc(F)c2F)N(O)C1=O has pIC50 at least equal to 7.
[reply] true (1)

[ask] Can N[C@H]1Cc2cc(C3CCOCC3)ccc2N(O)C1=O be said to have pIC50 at or above 7?
[reply] true (1)

[ask] Does COc1cc(Cl)c2c(c1)N(O)C(=O)[C@@H](N)C2 have a reported pIC50 of at least 7?
[reply] false (0)

[ask] Could you verify whether the entry N[C@H]1Cc2cc(Oc3cc(F)cc(Cl)c3)ccc2N(O)C1=O [Example 168, trifluoroacetate salt] shows pIC50 of no less than 7?
[reply] true (1)

Others:
[ask] hey, is pIC50 for this one >= 7? Cc1ccc(Oc2ccc3c(c2)CC(N)C(=O)N3O)cn1 (stereo not drawn)
[reply] true (1)

[ask] For this molecule, is measured pIC50 7 or higher? Cc1ncccc1Oc1ccc2c(c1)CC(N)C(=O)N2O (stereo not drawn)
[reply] true (1)

[ask] Exam item: decide whether the reported pIC50 for N[C@H]1Cc2cc(Cc3ccccc3)ccc2N(O)C1=O [Example 68, trifluoroacetic acid salt] is at least 7.
[reply] true (1)

[ask] Say whether NC1Cc2cc(Oc3cccnc3)ccc2N(O)C1=O (stereo not drawn) shows pIC50 of 7 or more.
[reply] true (1)

[ask] Does pIC50 meet or surpass 7 for NC1Cc2cc(Oc3cccc(OC(F)(F)F)c3)ccc2N(O)C1=O (stereo not drawn) ?
[reply] true (1)

---

# test_description: Prodrug in vivo pharmacokinetics in monkeys (plasma, LC-MS-MS)
# Parameters: species or system Monkey (Cynomolgus)
# condition: Cynomolgus, cynomolgus monkey, plasma, po, 3 mg/kg, Example 71 in monkey plasma after oral Example 71 (3 mg/kg active); Monkey 1
outcome_measure: Tmax (min)
Return type: number; implicit unit min.

Cl.N[C@H]1Cc2cc(Oc3ccccc3)ccc2N(O)C1=O has a reported Tmax of 15

---

# test_description: Prodrug in vivo pharmacokinetics in dogs (plasma, LC-MS-MS)
# Design: species or system Dog (Beagle)
# condition: Beagle, dog, plasma, po, 1 mg/kg, Example 72 in dog plasma after oral Example 72 (1 mg/kg active); Dog 2
outcome_measure: Cmax
Entry format: amount then unit.

Form: compound = CN(C)C(=O)ON1C(=O)[C@@H](N)Cc2cc(Oc3ccccc3)ccc21 ; Cmax = 0.248 µg/mL

---

# test_description: Prodrug in vivo pharmacokinetics in monkeys (plasma, LC-MS-MS)
# Design: species or system Monkey (Cynomolgus)
# condition: Cynomolgus, cynomolgus monkey, plasma, po, 10 mg/kg, Example 4 in monkey plasma after oral Example 4 (10 mg/kg active); Monkey 1
outcome_measure: Tmax (h)
Write the answer as a number in h, unit excluded.

Tmax for N[C@H]1Cc2ccccc2N(O)C1=O [Example 4] is 1

---

# test_description: Prodrug in vivo pharmacokinetics in monkeys (plasma, LC-MS-MS)
# Design: species or system Monkey (Cynomolgus)
# condition: Cynomolgus, cynomolgus monkey, plasma, po, 3 mg/kg, Example 71 in monkey plasma after oral Example 71 (3 mg/kg active); Mean
outcome_measure: half-life (min)
Answer with a number only, understood to be in min.

Cl.N[C@H]1Cc2cc(Oc3ccccc3)ccc2N(O)C1=O [Example 71] yielded half-life of 52.9

---

# test_description: Prodrug in vivo pharmacokinetics in monkeys (plasma, LC-MS-MS)
# Design: species or system Monkey (Cynomolgus)
# condition: Cynomolgus, cynomolgus monkey, plasma, po, 3 mg/kg, Example 71 in monkey plasma after oral Example 71 (3 mg/kg active); Monkey 2
outcome_measure: half-life (min)
API: value field is a number in min; no unit string.

Per the records, this molecule ( Cl.N[C@H]1Cc2cc(Oc3ccccc3)ccc2N(O)C1=O ) has half-life equal to 43.4

---

# test_description: Prodrug in vivo pharmacokinetics in dogs (plasma, LC-MS-MS)
# Design: species or system Dog (Beagle)
# condition: Beagle, dog, in vivo; exposure of Example 71 in dogs following intravenous administration of Example 71 at 0.5 mg/kg; read-out: AUC
outcome_measure: AUC (ng·h/mL)
Reply with just the number (in ng·h/mL).

Sample Cl.N[C@H]1Cc2cc(Oc3ccccc3)ccc2N(O)C1=O [Example 71] ; AUC observed: 247

---

# test_description: Prodrug in vivo pharmacokinetics in monkeys (plasma, LC-MS-MS)
# Design: species or system Monkey (Cynomolgus)
# condition: Cynomolgus, cynomolgus monkey, plasma, po, 10 mg/kg, Example 4 in monkey plasma after oral Example 4 (10 mg/kg active); Monkey 4
outcome_measure: Cmax (ng/mL)
Respond with the bare value in ng/mL.

Lab note: measured Cmax of N[C@H]1Cc2ccccc2N(O)C1=O was 133

---

# test_target: human KAT II (hKAT II) enzyme (Homo sapiens, UniProt Q8N5Z0)
# test_description: KAT II Inhibition Spectra Assay
# Assay type: biochemical
# condition: Table 6; hKAT II, decrease in OD370, 37° C., 15-20 h; read-out: KATII IC50
Counter-ions that a name gives are not always drawn.
Reported IC50 maps to class as: one = under 50 nM, two = from 50 nM up to 100 nM, three = 100 nM and over

Completed entries (count: 4):
[ask] Please let me know in which category the item CN(Cc1ccc2c(c1)C[C@H](N)C(=O)N2O)c1ccccc1 [Example 76] belongs.
[reply] one

[ask] Please let me know in which category the item N[C@H]1Cc2cc(Oc3cncc(Cl)c3)ccc2N(O)C1=O [Example 170, ammonium salt] belongs.
[reply] one

[ask] Place this compound in its band: NC1Cc2cc(Oc3ccccc3Cl)ccc2N(O)C1=O (centres unmarked) [Example 69, hydrochloride salt]
[reply] one

[ask] Into which category would you place N[C@H]1Cc2cc(Oc3ccc(Cl)c(C(F)(F)F)c3)ccc2N(O)C1=O [Example 158, trifluoroacetate salt] ?
[reply] three

---
[ask] # bin lookup: classify N[C@H]1Cc2ccncc2N(O)C1=O [Example 130] by its IC50
[reply] three

[ask] Lab note: which band did NC1Cc2cc(Oc3ccc(F)cc3F)ccc2N(O)C1=O (centres unmarked) [Example 85] land in?
[reply] one

[ask] Classify this compound: CCc1ccccc1-c1ccc2c(c1)C[C@H](N)C(=O)N2O [Example 149, trifluoroacetate salt]
[reply] three

[ask] Category lookup for the compound N[C@H]1Cc2cccc(C(F)F)c2N(O)C1=O [Example 119]
[reply] one

[ask] Returns: class label. Input: Cc1ccc(F)cc1Oc1ccc2c(c1)C[C@H](N)C(=O)N2O [Example 165, trifluoroacetate salt]
[reply] two

[ask] Any idea which band COc1cccc(-c2ccc3c(c2)C[C@H](N)C(=O)N3O)c1 [Example 155, trifluoroacetate salt] is in?
[reply] three

---

Reported values of pIC50 for individual entries
# test_target: UniProt:Q8N5Z0
# test_description: KAT II Inhibition Spectra Assay
# Format: biochemical
# condition: Table 6; hKAT II, decrease in OD370, 37° C., 15-20 h; read-out: KATII IC50
Where a name gives a salt, the structure may show the parent alone.
Please express pIC50 as -log10 of the molar concentration.

Kindly note the recorded pIC50 for N[C@H]1Cc2cc(Oc3cccc(C(F)(F)F)c3F)ccc2N(O)C1=O [Example 160, trifluoroacetate salt] , which is 7.00

response.value for COc1cccc2c1N(O)C(=O)C(N)C2 (stereo not drawn) [Example 118] (field: pIC50) = 5.90

---

# test_target: human KAT II (hKAT II) enzyme (Homo sapiens, UniProt Q8N5Z0)
# test_description: KAT II Inhibition Spectra Assay
# Assay type: biochemical
# condition: Table 5; hKAT II, decrease in OD370, 37° C., 15-20 h; read-out: KATII IC50
Structures can show the parent of a compound that is named as a salt.
Quick reference: pIC50 of the listed items.
Remember the convention: pIC50 equals -log10 of concentration in molar.

pIC50 for N#Cc1cccc2c1N(O)C(=O)C(N)C2 (centres unmarked) is 7.48

For record N[C@H]1Cc2ccc(Br)cc2N(O)C1=O the listed pIC50 is 7.60

// pIC50 lookup, molecule = COc1ccc(-c2ccc3c(c2)N(O)C(=O)C(N)C3)cc1 (centres unmarked) [Example 56, trifluoroacetate salt] , result: 7.04

Noted for COc1cccc(-c2ccc3c(c2)N(O)C(=O)C(N)C3)c1 (centres unmarked) [Example 13, hydrochloride salt] : its pIC50 reads 7.24

// moving on: another record for pIC50
Entry CC(C)Oc1ccc(-c2ccc3c(c2)N(O)C(=O)C(N)C3)cc1 (centres unmarked) [Example 60, trifluoroacetate salt] — recorded pIC50 = 6.79
